We begin with a simple list: items and their reported viability, T/C.
# System: MCF7 complex spheroid growth, % test/control
# METHOD SUMMARY: Anticancer human tumor MCF7 cell line growth inhibition [Asc];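 note: spheroids exposed to compounds for 7 days; 100% = DMSO vehicle control wells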
# CONDITIONS: second compound 0.00949 µM; first compound 3.16 µM; stronger effect = lower value

>  <COMPOUND>
O=C(c1cc(Cc2n[nH]c(=O)c3ccccc23)ccc1F)N1CCN(C(=O)C2CC2)CC1 + CCN1C(C(=O)NC23CCC(C(=O)O)(CC2)CC3)C(c2cccc(Cl)c2F)C2(C(=O)Nc3cc(Cl)ccc32)C12CCCCC2

>  <viability, T/C (%)>
92.3

$$$$
>  <COMPOUND>
C=C(F)C(=O)N1CCN(c2nc(OCC3CCCN3C)nc3c2CCN(c2cccc4cccc(Cl)c24)C3)CC1CC#N (centres undefined) + CCN1C(C(=O)NC23CCC(C(=O)O)(CC2)CC3)C(c2cccc(Cl)c2F)C2(C(=O)Nc3cc(Cl)ccc32)C12CCCCC2

>  <viability, T/C (%)>
50.4

$$$$
>  <COMPOUND>
C#Cc1c(F)ccc2cc(O)cc(-c3ncc4c(N5CC6CCC(C5)N6)nc(OCC56CCCN5CC(F)C6)nc4c3F)c12 (centres undefined) + CCN1C(C(=O)NC23CCC(C(=O)O)(CC2)CC3)C(c2cccc(Cl)c2F)C2(C(=O)Nc3cc(Cl)ccc32)C12CCCCC2

>  <viability, T/C (%)>
107

$$$$
>  <COMPOUND>
C=CC(=O)N1CCN(c2nc(=O)n(-c3c(C)ccnc3C(C)C)c3nc(-c4c(O)cccc4F)c(F)cc23)C(C)C1 (centres undefined) + CCN1C(C(=O)NC23CCC(C(=O)O)(CC2)CC3)C(c2cccc(Cl)c2F)C2(C(=O)Nc3cc(Cl)ccc32)C12CCCCC2

>  <viability, T/C (%)>
113

$$$$

Taken from PubChem BioAssay AID1963445.
